- Experimental System: 5-hydroxytryptamine receptor 1A (Homo sapiens) (UniProt P08908)
- Sequence (P08908 whole entry, looked up): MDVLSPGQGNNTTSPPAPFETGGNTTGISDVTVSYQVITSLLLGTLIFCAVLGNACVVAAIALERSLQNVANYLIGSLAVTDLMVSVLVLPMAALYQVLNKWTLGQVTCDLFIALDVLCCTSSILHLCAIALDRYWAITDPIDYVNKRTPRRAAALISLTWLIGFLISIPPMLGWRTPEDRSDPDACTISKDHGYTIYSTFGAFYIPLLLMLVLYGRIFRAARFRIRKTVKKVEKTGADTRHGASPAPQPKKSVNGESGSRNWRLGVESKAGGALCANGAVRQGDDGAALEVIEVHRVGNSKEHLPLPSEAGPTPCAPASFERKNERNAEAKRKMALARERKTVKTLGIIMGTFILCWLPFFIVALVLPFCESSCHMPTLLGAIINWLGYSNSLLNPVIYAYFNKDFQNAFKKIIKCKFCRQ
- Experimental Protocol: human 5-HT1a receptor antagonists, primary screen, cell-based, CHO, Ga15 NFAT-bla reporter (AID 612);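 note: receptor stimulated by 5-CT agonist at 100 nM near EC80; beta-lactamase reporter measured by ratiometric fluorescence of a cleavable substrate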
- Study Conditions: CHO 5-HT1a Ga15 NFAT-bla reporter, antagonist mode; at 10 µM; active compounds read high
Hit rate of the full screen: of about 62,000 compounds, about 420 (0.68%) were called active. For the sample, actives were picked, then their nearest neighbours and some compounds at random.
Reported Property: inhibition (%)
A number alone suffices; assume %.

Record lookup: for 5-hydroxytryptamine receptor 1A (Homo sapiens) (UniProt P08908), what inhibition belongs to `Nc1ccc(-c2nnc(-c3ccc(-c4ccccc4)cc3)o2)cc1` ? 62.6

Record lookup: for 5-hydroxytryptamine receptor 1A (Homo sapiens) (UniProt P08908), what inhibition belongs to `Clc1ccc(C=NC23CN4CN(CN(C4)C2)C3)cc1` ? -6.9

Record lookup: for 5-hydroxytryptamine receptor 1A (Homo sapiens) (UniProt P08908), what inhibition belongs to `COc1ccc(OC)c(S(=O)(=O)N(C)CC(=O)N2CCN(c3ccccc3)CC2)c1` ? -11.1

Record lookup: for 5-hydroxytryptamine receptor 1A (Homo sapiens) (UniProt P08908), what inhibition belongs to `COC(=O)c1ccc(CSc2nncn2C)cc1` ? -0.1

Record lookup: for 5-hydroxytryptamine receptor 1A (Homo sapiens) (UniProt P08908), what inhibition belongs to `C=CCn1c(SCn2nnc3ccccc3c2=O)nnc1-c1ccc(Cl)cc1` ? -2.8

Record lookup: for 5-hydroxytryptamine receptor 1A (Homo sapiens) (UniProt P08908), what inhibition belongs to `N#CC1=C(N)C(C#N)(C#N)[C@H](c2ccsc2)[C@H]2COCC=C12` ? -8.8

Record lookup: for 5-hydroxytryptamine receptor 1A (Homo sapiens) (UniProt P08908), what inhibition belongs to `O=C(Nc1nnc(-c2ccc(Cl)cc2)o1)c1ccccc1Br` ? 8.9

Record lookup: for 5-hydroxytryptamine receptor 1A (Homo sapiens) (UniProt P08908), what inhibition belongs to COc1ccc(C(CNC(=O)c2cccnc2SC)N2CCOCC2)cc1 (stereo unspecified) ? 5.3

Record lookup: for 5-hydroxytryptamine receptor 1A (Homo sapiens) (UniProt P08908), what inhibition belongs to `Cc1oc2nc(SCC(=O)NCc3cccnc3)nc(N)c2c1C` ? 5.1

Record lookup: for 5-hydroxytryptamine receptor 1A (Homo sapiens) (UniProt P08908), what inhibition belongs to CC1CCCC(C)N1CCCNC(=O)c1cc2c(=O)n(C)c3ccccc3c2n1C (stereo unspecified) ? 1.7

Record lookup: for 5-hydroxytryptamine receptor 1A (Homo sapiens) (UniProt P08908), what inhibition belongs to `CCOC(=O)N1CCC(Nc2c(NCCN3CCN(c4cccc(Cl)c4)CC3)c(=O)c2=O)CC1` ? 1.9

Record lookup: for 5-hydroxytryptamine receptor 1A (Homo sapiens) (UniProt P08908), what inhibition belongs to `O=S(=O)(NCc1ccccn1)c1ccc(F)cc1` ? -4.1

Record lookup: for 5-hydroxytryptamine receptor 1A (Homo sapiens) (UniProt P08908), what inhibition belongs to CCCC(=O)NC(C)C(c1cccs1)N1CCN(c2ccccc2)CC1 (stereo unspecified) ? 16.9

Record lookup: for 5-hydroxytryptamine receptor 1A (Homo sapiens) (UniProt P08908), what inhibition belongs to `Cc1ccc(-n2c(Cc3cccs3)nnc2SCC(=O)OC(C)C)cc1` ? 8.6

Record lookup: for 5-hydroxytryptamine receptor 1A (Homo sapiens) (UniProt P08908), what inhibition belongs to CCOc1ccc2[nH]c(=O)c(C(c3nnnn3CCOC)N3CCOCC3)cc2c1 (stereo unspecified) ? -1.9

Record lookup: for 5-hydroxytryptamine receptor 1A (Homo sapiens) (UniProt P08908), what inhibition belongs to `Cc1ccc(Oc2ccc(N)cc2)cc1` ? 11.4

Record lookup: for 5-hydroxytryptamine receptor 1A (Homo sapiens) (UniProt P08908), what inhibition belongs to `CC12CN(Cc3ccccc3)CC(C)(CN(Cc3ccccc3)C1)C2=NO` ? 50.1

Record lookup: for 5-hydroxytryptamine receptor 1A (Homo sapiens) (UniProt P08908), what inhibition belongs to `Cn1nc(-c2ccc(N3CCOCC3)c(NC(=O)c3ccccc3)c2)c2ccccc2c1=O` ? 26.6

Record lookup: for 5-hydroxytryptamine receptor 1A (Homo sapiens) (UniProt P08908), what inhibition belongs to `CCN(Cc1ccccc1)C(=O)CSc1nc(C)cc2c1C(=O)OC2` ? -9

Record lookup: for 5-hydroxytryptamine receptor 1A (Homo sapiens) (UniProt P08908), what inhibition belongs to `COc1ccc(-c2ccc(Nc3ccc(S(=O)(=O)N4CCCC4)cc3)nn2)cc1OC` ? -0.9

Record lookup: for 5-hydroxytryptamine receptor 1A (Homo sapiens) (UniProt P08908), what inhibition belongs to `Cn1c(C(=O)NCCc2ccsc2)cc2c(=O)n(C)c3ccccc3c21` ? -3.6

Record lookup: for 5-hydroxytryptamine receptor 1A (Homo sapiens) (UniProt P08908), what inhibition belongs to CCC(C)NC(=O)N[C@@H](CCSC)C(=O)O (stereo partly specified) ? -11.6

Record lookup: for 5-hydroxytryptamine receptor 1A (Homo sapiens) (UniProt P08908), what inhibition belongs to `O=C(CCn1c(=O)[nH]c2ccccc2c1=O)NCCCN1CCN(c2cccc(Cl)c2)CC1` ? 37.1

Record lookup: for 5-hydroxytryptamine receptor 1A (Homo sapiens) (UniProt P08908), what inhibition belongs to COc1cccc(NC(=O)Nc2nnc(N3CCCCC3C)s2)c1 (stereo unspecified) ? 35.8

Record lookup: for 5-hydroxytryptamine receptor 1A (Homo sapiens) (UniProt P08908), what inhibition belongs to `CCOC(=O)CSc1nc2c(sc(=S)n2CCc2ccccc2)c(=O)n1Cc1ccco1` ? 58.2

Record lookup: for 5-hydroxytryptamine receptor 1A (Homo sapiens) (UniProt P08908), what inhibition belongs to COc1ccccc1-n1cnc2cc(C(=O)NCC3CCCO3)ccc21 (stereo unspecified) ? 10.8

Record lookup: for 5-hydroxytryptamine receptor 1A (Homo sapiens) (UniProt P08908), what inhibition belongs to `CCOc1cc(C(=O)N2CCc3cc(OC)c(OC)cc3C2)ccc1OC(F)F` ? 60.5

Record lookup: for 5-hydroxytryptamine receptor 1A (Homo sapiens) (UniProt P08908), what inhibition belongs to CCOCCCN1C(=O)CN(C2CCCCC2)C(=O)C1c1ccc(OCC)c(OC)c1 (stereo unspecified) ? 4.5

Record lookup: for 5-hydroxytryptamine receptor 1A (Homo sapiens) (UniProt P08908), what inhibition belongs to O=C(OCC(O)C(O)COC(=O)c1ccccc1)c1ccccc1 (stereo unspecified) ? -11.9

Record lookup: for 5-hydroxytryptamine receptor 1A (Homo sapiens) (UniProt P08908), what inhibition belongs to `CCOC(=O)CSc1nc2c(c(=O)n(C)c(=O)n2C)n1Cc1ccccc1F` ? -3.1

Record lookup: for 5-hydroxytryptamine receptor 1A (Homo sapiens) (UniProt P08908), what inhibition belongs to `CN1CCN(CC(=O)C23CC4CC(CC(C4)C2)C3)CC1` ? 4.4

Record lookup: for 5-hydroxytryptamine receptor 1A (Homo sapiens) (UniProt P08908), what inhibition belongs to `Cc1cc(C(=O)Nc2c(C)n(C)n(-c3ccccc3)c2=O)cs1` ? 5.4

Record lookup: for 5-hydroxytryptamine receptor 1A (Homo sapiens) (UniProt P08908), what inhibition belongs to `S=C1SCN(CCN2CCOCC2)CN1Cc1ccccc1` ? -2.1

Record lookup: for 5-hydroxytryptamine receptor 1A (Homo sapiens) (UniProt P08908), what inhibition belongs to `O=S(=O)(Nc1ccccc1N1CCOCC1)c1ccc(Cl)s1` ? 4.3

Record lookup: for 5-hydroxytryptamine receptor 1A (Homo sapiens) (UniProt P08908), what inhibition belongs to `CCOc1cc(CN2CCN(C(=O)CC(C)C)CC2)ccc1OC` ? -2.9

Record lookup: for 5-hydroxytryptamine receptor 1A (Homo sapiens) (UniProt P08908), what inhibition belongs to `COc1ccc(-c2nnco2)cc1OC` ? 2

Record lookup: for 5-hydroxytryptamine receptor 1A (Homo sapiens) (UniProt P08908), what inhibition belongs to `O=C(O)CCN1C(=O)CC2(CCCCC2)C1=O` ? 6.3

Record lookup: for 5-hydroxytryptamine receptor 1A (Homo sapiens) (UniProt P08908), what inhibition belongs to `CCOC(=O)CSc1nnc(CNC(=O)c2ccco2)n1-c1ccc(F)cc1` ? 5.9

Record lookup: for 5-hydroxytryptamine receptor 1A (Homo sapiens) (UniProt P08908), what inhibition belongs to O=C(CC(NS(=O)(=O)c1ccc(Cl)cc1)c1ccco1)NC1CCCC1 (stereo unspecified) ? 7.3

Record lookup: for 5-hydroxytryptamine receptor 1A (Homo sapiens) (UniProt P08908), what inhibition belongs to CS(=O)(=O)c1ccc2nc(NC(=O)C3C4C=CC(C4)C3C(=O)O)sc2c1 (stereo unspecified) ? -0.7

Record lookup: for 5-hydroxytryptamine receptor 1A (Homo sapiens) (UniProt P08908), what inhibition belongs to `COc1ccc(C(=O)N2CCC(C(=O)Nc3cccc(C)c3)CC2)cc1OC` ? -2.1

Record lookup: for 5-hydroxytryptamine receptor 1A (Homo sapiens) (UniProt P08908), what inhibition belongs to `CC(=O)c1ccc(Oc2cc(C)nc(-n3nc(C)cc3C)n2)cc1` ? 45.2

Record lookup: for 5-hydroxytryptamine receptor 1A (Homo sapiens) (UniProt P08908), what inhibition belongs to `Cc1ccc(S(=O)(=O)N2CCOCC2)cc1C(=O)NCc1ccc(F)cc1` ? 3.3

Record lookup: for 5-hydroxytryptamine receptor 1A (Homo sapiens) (UniProt P08908), what inhibition belongs to `C=CCSc1nnc(Cn2c(=O)sc3ccccc32)n1C` ? -0.5

Record lookup: for 5-hydroxytryptamine receptor 1A (Homo sapiens) (UniProt P08908), what inhibition belongs to `COc1ccc2[nH]c3c(=O)n(Cc4ccco4)cnc3c2c1` ? 6

Record lookup: for 5-hydroxytryptamine receptor 1A (Homo sapiens) (UniProt P08908), what inhibition belongs to `COc1ccccc1NC(=O)CSc1nc2sc(C)c(C)c2c(=O)n1Cc1ccco1` ? 19.2
